- TARGET ENTITY: Coagulation factor X (Homo sapiens, UniProt P00742)
- Sequence (P00742 41-179 limits assumed): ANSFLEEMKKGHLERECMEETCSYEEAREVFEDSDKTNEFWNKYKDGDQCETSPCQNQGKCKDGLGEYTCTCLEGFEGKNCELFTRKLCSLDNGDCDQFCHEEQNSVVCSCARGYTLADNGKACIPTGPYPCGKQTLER
- Sequence (P00742 235-488 limits assumed): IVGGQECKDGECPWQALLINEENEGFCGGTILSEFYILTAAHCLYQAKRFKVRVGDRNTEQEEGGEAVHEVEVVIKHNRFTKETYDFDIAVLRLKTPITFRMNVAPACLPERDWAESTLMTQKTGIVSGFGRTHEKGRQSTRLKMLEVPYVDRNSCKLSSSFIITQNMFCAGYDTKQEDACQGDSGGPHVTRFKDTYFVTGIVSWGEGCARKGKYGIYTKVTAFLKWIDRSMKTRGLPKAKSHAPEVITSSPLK
- ASSAY REMARKS: Inhibition of FXA (unknown origin)
pKi: −log10 of the molar value.
PROPERTY NAME: pKi

CC(C)[C@H](NC(=O)[C@H](Cc1cscn1)NC(=O)CCc1ccccc1)C(=O)N[C@@H](CCCNC(=N)N)C(=O)c1nc2ccccc2s1; 6.49

###

- TARGET ENTITY: Suppressor of tumorigenicity 14 protein (Homo sapiens, UniProt Q9Y5Y6)
- Sequence (Q9Y5Y6 whole entry): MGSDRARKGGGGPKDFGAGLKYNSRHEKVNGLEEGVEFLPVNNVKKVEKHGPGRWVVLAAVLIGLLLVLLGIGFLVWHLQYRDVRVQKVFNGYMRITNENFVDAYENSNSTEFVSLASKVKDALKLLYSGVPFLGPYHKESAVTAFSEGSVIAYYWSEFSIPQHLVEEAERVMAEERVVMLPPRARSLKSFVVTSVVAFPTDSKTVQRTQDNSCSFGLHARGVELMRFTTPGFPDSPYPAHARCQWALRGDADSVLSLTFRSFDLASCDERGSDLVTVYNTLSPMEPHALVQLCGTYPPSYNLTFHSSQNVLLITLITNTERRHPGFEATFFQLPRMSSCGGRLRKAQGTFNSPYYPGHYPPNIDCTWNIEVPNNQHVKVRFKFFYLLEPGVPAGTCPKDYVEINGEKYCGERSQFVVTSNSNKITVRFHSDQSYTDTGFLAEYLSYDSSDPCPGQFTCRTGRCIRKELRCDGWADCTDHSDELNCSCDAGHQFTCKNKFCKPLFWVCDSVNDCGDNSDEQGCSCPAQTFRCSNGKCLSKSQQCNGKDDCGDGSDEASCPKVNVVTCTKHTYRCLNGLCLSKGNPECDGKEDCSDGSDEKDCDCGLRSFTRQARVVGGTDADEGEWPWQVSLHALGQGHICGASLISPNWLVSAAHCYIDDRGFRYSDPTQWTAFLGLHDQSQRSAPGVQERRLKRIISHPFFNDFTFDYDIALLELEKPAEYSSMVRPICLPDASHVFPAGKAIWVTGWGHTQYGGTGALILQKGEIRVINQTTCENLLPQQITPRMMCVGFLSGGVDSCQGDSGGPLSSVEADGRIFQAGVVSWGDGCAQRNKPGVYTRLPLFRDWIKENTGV
- ASSAY REMARKS: Competitive tight binding inhibition of recombinant human Matriptase using Boc-QAR-AMC as substrate assessed as inhibition constant by fluorescence based analysis
pKi: −log10 of the molar value.
PROPERTY NAME: pKi

CC(C)[C@H](NC(=O)[C@H](Cc1cscn1)NC(=O)CCc1ccccc1)C(=O)N[C@@H](CCCNC(=N)N)C(=O)c1nc2ccccc2s1; 8.32
